target: Aurora2 (Homo sapiens, UniProt O14965); construct: Aurora2: whole recombinant protein comprising an N-terminal histidine tail; His tag (N); test: Aurora2 enzymatic test, NuMA phosphorylation with [33P]ATP, Flashplate; details: whole recombinant protein, 1 μM ATP
Sequence (O14965 whole entry): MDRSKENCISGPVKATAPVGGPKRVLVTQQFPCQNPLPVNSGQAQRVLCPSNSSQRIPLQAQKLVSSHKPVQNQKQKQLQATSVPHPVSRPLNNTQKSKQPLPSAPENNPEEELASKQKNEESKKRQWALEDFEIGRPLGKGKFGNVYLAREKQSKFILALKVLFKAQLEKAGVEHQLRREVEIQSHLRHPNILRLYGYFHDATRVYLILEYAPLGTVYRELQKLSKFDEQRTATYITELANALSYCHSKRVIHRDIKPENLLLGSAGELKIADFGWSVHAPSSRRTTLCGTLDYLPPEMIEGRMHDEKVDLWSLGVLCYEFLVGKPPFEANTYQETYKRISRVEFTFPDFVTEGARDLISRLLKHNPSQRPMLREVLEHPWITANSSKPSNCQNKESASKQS
pIC50: −log10 of the molar value.
Give 1 when the value for pIC50 is at least 8. Give 0 when it is less.

Would you please look over these solved cases?
>>> label_value("CN(C)CCN(C)Cc1ccc(C(=O)Nc2n[nH]c3sc(C(=O)NN(C)c4ccc(Cl)cc4)cc23)cc1 [Example 20b]")
0
>>> label_value("CN1CCN(c2ccc(C(=O)Nc3n[nH]c4sc(C(=O)N/N=C\\c5ccccc5)cc34)cc2)CC1")
0
>>> label_value("CN1CCN(c2ccc(C(=O)Nc3n[nH]c4sc(C(=O)NN(Cc5ccccc5)c5ccccc5)cc34)cc2)CC1")
1
>>> label_value("CCN(CC)CCNCc1ccc(C(=O)Nc2n[nH]c3sc(C(=O)NN(C)c4ccccc4)cc23)cc1 [Example 23a]")
0
>>> label_value("CN(NC(=O)c1cc2c(NC(=O)c3ccc(CN4CCCCC4)cc3)n[nH]c2s1)c1ccc(Cl)cc1 [Example 17b]")
0

Query block: Reported pIC50 at or above 8? CN1CCCN(Cc2ccc(C(=O)Nc3n[nH]c4sc(C(=O)NN(C)c5ccccc5)cc34)cc2)CC1 [Example 12a]
Result block: 0

====

target: Aurora2 (Homo sapiens, UniProt O14965); construct: Aurora2: whole recombinant protein comprising an N-terminal histidine tail; His tag (N); assay: Aurora2 enzymatic test, NuMA phosphorylation with [33P]ATP, Flashplate; settings: whole recombinant protein, 1 μM ATP
Below, each entry is listed with its recorded pIC50.
Entry type: numeric. Quantity: pIC50, the -log10 of concentration in molar units.

Some compounds with known pIC50 results, for comparison:
>>> test_result("CN(Cc1ccc(C(=O)Nc2n[nH]c3sc(C(=O)NN(C)c4ccccc4)cc23)cc1)c1ccccc1")
7.31
>>> test_result("CCN(NC(=O)c1cc2c(NC(=O)c3ccc(N4CCN(C)CC4)cc3)n[nH]c2s1)c1ccc(F)cc1")
7.70
>>> test_result("COc1ccc(C(=O)Nc2n[nH]c3sc(C(=O)NNc4ccccc4C)cc23)cc1")
7.77
>>> test_result("CN(C)CCN(C)Cc1ccc(C(=O)Nc2n[nH]c3sc(C(=O)NN(C)c4ccccc4)cc23)cc1 [Example 20a]")
7.15
>>> test_result("CN(NC(=O)c1cc2c(NC(=O)c3ccc(CN4CCCC4)cc3)n[nH]c2s1)c1ccc(Cl)cc1 [Example 18b]")
7.30
>>> test_result("CN1CCN(Cc2cccc(C(=O)Nc3n[nH]c4sc(C(=O)NN(C)c5ccc(Cl)cc5)cc34)c2)CC1 [Example 16b]")
6.22
>>> test_result("COc1ccc(C(=O)Nc2n[nH]c3sc(C(=O)NNc4ccccc4F)cc23)cc1")
7.70

Query block: What does the record list as pIC50 for CC1CN(Cc2ccc(C(=O)Nc3n[nH]c4sc(C(=O)NN(C)c5ccccc5)cc34)cc2)CCN1 (centres unmarked) [Example 14a] ?
Result block: 7.72

====

molecular target: Aurora1 (Homo sapiens, UniProt Q96GD4); construct: His tag (N); assay: Aurora1 enzymatic test, NuMA phosphorylation with [33P]ATP, Flashplate; details: Aurora-B/INCENP-C3 recombinant complex, 1 μM ATP
Sequence (Q96GD4 whole entry, species assumed): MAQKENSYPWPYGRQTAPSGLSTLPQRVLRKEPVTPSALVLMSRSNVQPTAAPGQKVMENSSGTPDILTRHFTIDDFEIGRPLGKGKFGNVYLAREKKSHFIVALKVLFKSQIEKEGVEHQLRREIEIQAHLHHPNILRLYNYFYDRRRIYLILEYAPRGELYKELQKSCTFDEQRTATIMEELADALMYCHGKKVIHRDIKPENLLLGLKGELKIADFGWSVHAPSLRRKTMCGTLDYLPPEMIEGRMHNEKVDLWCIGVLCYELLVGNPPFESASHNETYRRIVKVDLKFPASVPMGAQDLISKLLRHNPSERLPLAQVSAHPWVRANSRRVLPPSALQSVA
Sequence (Q9NQS7 835-903 partner limits assumed, species assumed): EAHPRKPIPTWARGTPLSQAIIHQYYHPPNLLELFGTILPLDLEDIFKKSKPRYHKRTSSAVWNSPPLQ
metric: IC50 (nM)
Give your result in nM as a bare value.

Some molecules with known IC50 results, for comparison:
>>> test_result("CN1CCN(Cc2ccc(C(=O)Nc3n[nH]c4sc(C(=O)NN(C)c5ccccc5)cc34)cc2)CC1 [Example 10]")
102
>>> test_result("CN(C)CCN(C)Cc1ccc(C(=O)Nc2n[nH]c3sc(C(=O)NN(C)c4ccc(Cl)cc4)cc23)cc1 [Example 20b]")
155

Query block: What does the record list as IC50 for CN(NC(=O)c1cc2c(NC(=O)c3cccc(CN4CCOCC4)c3)n[nH]c2s1)c1ccccc1 [Example 22a] ?
Result block: 147

Query block: What does the record list as IC50 for CCN(NC(=O)c1cc2c(NC(=O)c3ccc(N4CCN(C)CC4)cc3)n[nH]c2s1)c1ccc(F)cc1 [Example 37] ?
Result block: 32

====

target: Aurora2 (Homo sapiens); construct: Aurora2: whole recombinant protein comprising an N-terminal histidine tail; His tag (N); test: Aurora2 enzymatic test, NuMA phosphorylation with [33P]ATP, Flashplate; settings: whole recombinant protein, 1 μM ATP
IC50 strictly under 40 nM means 1.0; at 40 nM or over means 0.0.

>>> label_value("CC1CN(Cc2ccc(C(=O)Nc3n[nH]c4sc(C(=O)NN(C)c5ccc(Cl)cc5)cc34)cc2)CC(C)N1 (stereo not shown) [Example 11b]")
0.0
>>> label_value("CN1CCCN(Cc2ccc(C(=O)Nc3n[nH]c4sc(C(=O)NN(C)c5ccc(Cl)cc5)cc34)cc2)CC1 [Example 12b]")
0.0

Query block: Criterion: IC50 strictly below 40 nM. Is it met by CCN(NC(=O)c1cc2c(NC(=O)c3ccc(N4CCN(C)CC4)cc3)n[nH]c2s1)c1cccc(C)c1 [Example 40] ?
Result block: 1.0

Query block: Criterion: IC50 strictly below 40 nM. Is it met by CN(NC(=O)c1cc2c(NC(=O)c3cccc(CN4CCOCC4)c3)n[nH]c2s1)c1ccccc1 [Example 22a] ?
Result block: 0.0

====

molecular target: CDK2/cycline E (Homo sapiens, UniProt P24941); assay: CDK2/cyclineE Flashplate test in 96-well format; details: CDK2/cycline E complex, 1 μM ATP
IC50 strictly under 90 nM means fulfilled; at 90 nM or over means not fulfilled.

Would you please look over these solved cases?
>>> label_value("CN1CCCN(Cc2ccc(C(=O)Nc3n[nH]c4sc(C(=O)NN(C)c5ccc(Cl)cc5)cc34)cc2)CC1 [Example 12b]")
"fulfilled"
>>> label_value("COc1ccc(C(=O)Nc2n[nH]c3sc(C(=O)NN(Cc4ccccc4)c4ccccc4)cc23)cc1")
"not fulfilled"
>>> label_value("CCN(NC(=O)c1cc2c(NC(=O)c3ccc(N4CCN(C)CC4)cc3)n[nH]c2s1)c1ccc(F)cc1")
"fulfilled"
>>> label_value("CC1CN(Cc2ccc(C(=O)Nc3n[nH]c4sc(C(=O)NN(C)c5ccccc5)cc34)cc2)CC(C)N1 (centres unmarked) [Example 11a]")
"not fulfilled"
>>> label_value("CN(NC(=O)c1cc2c(NC(=O)c3ccc(Br)cc3)n[nH]c2s1)c1ccccc1")
"fulfilled"

Query block: Criterion: IC50 strictly below 90 nM. Is it met by `CCN(NC(=O)c1cc2c(NC(=O)c3ccc(N4CCN(C)CC4)cc3)n[nH]c2s1)c1cccc(C)c1` ?
Result block: not fulfilled

Query block: Criterion: IC50 strictly below 90 nM. Is it met by `CN1CCN(c2ccc(C(=O)Nc3n[nH]c4sc(C(=O)NNCc5ccccc5)cc34)cc2)CC1` ?
Result block: not fulfilled

====

molecular target: Tie2 (Homo sapiens, UniProt Q02763); construct: amino acids of the intracellular domain 776-1124; experiment: Tie2 kinase test, phosphorylation of PLC with GST-Tie2; conditions: GST-Tie2 intracellular domain 776-1124
Sequence (Q02763 776-1124): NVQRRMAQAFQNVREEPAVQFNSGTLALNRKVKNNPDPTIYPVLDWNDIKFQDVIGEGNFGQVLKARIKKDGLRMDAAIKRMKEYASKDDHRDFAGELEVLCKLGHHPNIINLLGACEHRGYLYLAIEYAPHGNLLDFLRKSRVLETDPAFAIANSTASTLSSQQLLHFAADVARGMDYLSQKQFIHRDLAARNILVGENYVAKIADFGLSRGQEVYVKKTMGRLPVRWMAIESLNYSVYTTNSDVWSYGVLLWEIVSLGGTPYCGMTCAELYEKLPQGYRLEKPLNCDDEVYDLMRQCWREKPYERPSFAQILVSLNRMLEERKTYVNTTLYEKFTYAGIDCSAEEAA
metric: IC50 (nM)
Give your result in nM as a bare value.

>>> test_result("CN1CCN(c2ccc(C(=O)Nc3n[nH]c4sc(C(=O)NN(Cc5ccccc5)c5ccccc5)cc34)cc2)CC1")
38
>>> test_result("COc1ccc(C(=O)Nc2n[nH]c3sc(C(=O)NNc4ccccc4F)cc23)cc1")
230
>>> test_result("CN(NC(=O)c1cc2c(NC(=O)c3ccc(CN4CCC4)cc3)n[nH]c2s1)c1ccccc1")
888
>>> test_result("CN1CCN(c2ccc(C(=O)Nc3n[nH]c4sc(C(=O)N/N=C\\c5ccccc5)cc34)cc2)CC1")
29

Query block: What does the record list as IC50 for `CN1CCN(c2ccc(C(=O)Nc3n[nH]c4sc(C(=O)NN(CC5CCC5)c5ccc(Cl)cc5)cc34)cc2)CC1` ?
Result block: 6

Query block: What does the record list as IC50 for `CN(NC(=O)c1cc2c(NC(=O)c3ccc(Br)cc3)n[nH]c2s1)c1ccccc1` ?
Result block: 820

Query block: What does the record list as IC50 for `COc1ccc(C(=O)Nc2n[nH]c3sc(C(=O)NNC4CCCCC4)cc23)cc1` ?
Result block: 192

Query block: What does the record list as IC50 for CC1CN(Cc2ccc(C(=O)Nc3n[nH]c4sc(C(=O)NN(C)c5ccc(Cl)cc5)cc34)cc2)CC(C)N1 (stereo not drawn) [Example 11b] ?
Result block: 704

====

biological target: Aurora1 (Homo sapiens); construct: His tag (N); assay: Aurora1 enzymatic test, NuMA phosphorylation with [33P]ATP, Flashplate; settings: Aurora-B/INCENP-C3 recombinant complex, 1 μM ATP
Below, each entry is listed with its recorded IC50.

>>> test_result("CN(NC(=O)c1cc2c(NC(=O)c3ccc(CN4CCC4)cc3)n[nH]c2s1)c1ccccc1 [Example 19]")
"0.304 µM"
>>> test_result("CN1CCN(c2ccc(C(=O)Nc3n[nH]c4sc(C(=O)N/N=C\\c5ccccc5)cc34)cc2)CC1 [Example 45]")
"0.033 µM"
>>> test_result("CC1CN(Cc2ccc(C(=O)Nc3n[nH]c4sc(C(=O)NN(C)c5ccccc5)cc34)cc2)CCN1 (stereo not shown) [Example 14a]")
"0.158 µM"

Please turn your attention to the following entry.
Query block: Give the reported IC50 for CN(NC(=O)c1cc2c(NC(=O)c3ccc(CN4CCCOCC4)cc3)n[nH]c2s1)c1ccc(Cl)cc1 [Example 21b] (system: Aurora1 (Homo sapiens)).
Result block: 0.16 µM
